As shown below, each of these molecules has a reported IC50 value.
Tested on: SGC-7901
Assay: Antiproliferative activity against human SGC-7901 cells assessed as inhibition of cell growth incubated for 72 hrs by MTT assay
Format: functional, cell-based
Details: SGC-7901, 72 h

Molecule: CC(C)(C)OC(=O)N[C@@H](Cc1cnc[nH]1)C(=O)Oc1ccc2[nH]c3c(c2c1)CCN1C(=O)c2cc(F)ccc2N(c2cccc(F)c2)[C@@H]31
Units Of Measure: µM
Comparison Sign: =
IC50: 66.5
--
Molecule: CC(C)(C)OC(=O)N[C@@H](Cc1c[nH]c2ccccc12)C(=O)Oc1ccc2[nH]c3c(c2c1)CCN1C(=O)c2cc(F)ccc2N(c2cccc(F)c2)[C@@H]31
Units Of Measure: µM
Comparison Sign: =
IC50: 67.3
--
Molecule: CC(C)(C)OC(=O)N[C@@H](Cc1c[nH]c2ccccc12)C(=O)Oc1ccc2[nH]c3c(c2c1)CCN1C(=O)c2cc(F)ccc2N(c2cccc(F)c2)[C@H]31
Units Of Measure: µM
Comparison Sign: =
IC50: 1.48
--
Molecule: CCC(C)[C@H](NC(=O)OC(C)(C)C)C(=O)Oc1ccc2[nH]c3c(c2c1)CCN1C(=O)c2cc(F)ccc2N(c2cccc(F)c2)[C@@H]31 (stereo partly specified)
Units Of Measure: µM
Comparison Sign: >
IC50: 100
--
Molecule: CC(C)(C)OC(=O)NCC(=O)Oc1ccc2[nH]c3c(c2c1)CCN1C(=O)c2cc(F)ccc2N(c2cccc(F)c2)[C@@H]31
Units Of Measure: µM
Comparison Sign: =
IC50: 42.6
--
Molecule: CSCC[C@H](NC(=O)OC(C)(C)C)C(=O)Oc1ccc2[nH]c3c(c2c1)CCN1C(=O)c2cc(F)ccc2N(c2cccc(F)c2)[C@@H]31
Units Of Measure: µM
Comparison Sign: =
IC50: 46.1

---

Test: Apparent clearance during terminal phase in male Sprague-Dawley rat at 50 mg/kg, ip measured after 24 hrs by LC-MS/MS analysis
Format: ADME, organism-based
Conditions: in vivo, read-out: CLz/F (converted)
As shown below, each of these compounds has a reported CL/F value.
Experimental Readout: CL/F (mL/min/kg)

Structure String: CC(C)(C)OC(=O)N[C@@H](CCC(N)=O)C(=O)Oc1ccc2[nH]c3c(c2c1)CCN1C(=O)c2cc(F)ccc2N(c2cccc(F)c2)[C@H]31
Meas Value: 57.2
//
Structure String: O=C1c2cc(F)ccc2N(c2cccc(F)c2)[C@@H]2c3[nH]c4ccc(O)cc4c3CCN12
Meas Value: 77.8

---

System: Huh-7
Assay: Antiproliferative activity against human Huh-7 cells assessed as inhibition of cell growth incubated for 72 hrs by MTT assay
Format: functional, cell-based
Settings: Huh-7, 72 h
pIC50: −log10 of the molar value.
Experimental Readout: pIC50

Structure String: CC(C)[C@H](NC(=O)OC(C)(C)C)C(=O)Oc1ccc2[nH]c3c(c2c1)CCN1C(=O)c2cc(F)ccc2N(c2cccc(F)c2)[C@@H]31
Experimental Readout: pIC50
Meas Value: 4.85

Structure String: CC(C)(C)OC(=O)N[C@@H](COCc1ccccc1)C(=O)Oc1ccc2[nH]c3c(c2c1)CCN1C(=O)c2cc(F)ccc2N(c2cccc(F)c2)[C@@H]31
Experimental Readout: pIC50
Meas Value: 5.00

Structure String: CC(C)(C)OC(=O)N[C@@H](Cc1cnc[nH]1)C(=O)Oc1ccc2[nH]c3c(c2c1)CCN1C(=O)c2cc(F)ccc2N(c2cccc(F)c2)[C@@H]31
Experimental Readout: pIC50
Meas Value: 4.89

Structure String: CC(C)(C)OC(=O)N[C@@H](Cc1ccccc1)C(=O)Oc1ccc2[nH]c3c(c2c1)CCN1C(=O)c2cc(F)ccc2N(c2cccc(F)c2)[C@@H]31
Experimental Readout: pIC50
Meas Value: 4.93

Structure String: CC(C)(C)OC(=O)N[C@@H](Cc1c[nH]c2ccccc12)C(=O)Oc1ccc2[nH]c3c(c2c1)CCN1C(=O)c2cc(F)ccc2N(c2cccc(F)c2)[C@@H]31
Experimental Readout: pIC50
Meas Value: 4.87

Structure String: CC(C)C[C@H](NC(=O)OC(C)(C)C)C(=O)Oc1ccc2[nH]c3c(c2c1)CCN1C(=O)c2cc(F)ccc2N(c2cccc(F)c2)[C@@H]31
Experimental Readout: pIC50
Meas Value: 5.01

Structure String: CC(C)(C)OC(=O)N[C@@H](COCc1ccccc1)C(=O)Oc1ccc2[nH]c3c(c2c1)CCN1C(=O)c2cc(F)ccc2N(c2cccc(F)c2)[C@H]31
Experimental Readout: pIC50
Meas Value: 6.52

Structure String: CC(C)(C)OC(=O)NCC(=O)Oc1ccc2[nH]c3c(c2c1)CCN1C(=O)c2cc(F)ccc2N(c2cccc(F)c2)[C@H]31
Experimental Readout: pIC50
Meas Value: 6.80

Structure String: CSCC[C@H](NC(=O)OC(C)(C)C)C(=O)Oc1ccc2[nH]c3c(c2c1)CCN1C(=O)c2cc(F)ccc2N(c2cccc(F)c2)[C@H]31
Experimental Readout: pIC50
Meas Value: 6.68

Structure String: CSCC[C@H](NC(=O)OC(C)(C)C)C(=O)Oc1ccc2[nH]c3c(c2c1)CCN1C(=O)c2cc(F)ccc2N(c2cccc(F)c2)[C@@H]31
Experimental Readout: pIC50
Meas Value: 4.86

Structure String: CC(C)(C)OC(=O)N[C@@H](Cc1cnc[nH]1)C(=O)Oc1ccc2[nH]c3c(c2c1)CCN1C(=O)c2cc(F)ccc2N(c2cccc(F)c2)[C@H]31
Experimental Readout: pIC50
Meas Value: 6.57
